- System: Fibroblast
- measurement.protocol: Multiplex assay against human fibroblast
- Format: toxicity, cell-based
- setup.conditions: 48 h, 10 µM, compound concentration 10 uM, replicate 2
We begin with a simple list: items and their reported Population Hoechst High Intensity Objects (%).
recorded.endpoint: Population Hoechst High Intensity Objects (%)

CC(/C=C1\SC(=S)N(CCCC(=O)Nc2ccc(C(=O)O)c(O)c2)C1=O)=C\c1ccccc1 : 3
Cl.NCCc1ccc(O)c(O)c1 [DOPAMINE HYDROCHLORIDE] : 0
Br.CS(=O)(=O)Nc1c(O)ccc2c1CCCC2C1=NCCN1 (stereo unspecified) : 1
C[C@H](N)COC(=O)[C@@H](CCCCN)NC(=O)Cc1c(-c2ccc3ccccc3c2)[nH]c2c1ccc1ccccc12 : 5
CCCCC1=NC2(CCCC2)C(=O)N1Cc1ccc(-c2ccccc2-c2nnn[nH]2)cc1 : 0
N#Cc1cc(F)cc(-c2nc(-c3ccc(F)cn3)no2)c1 : 5
O=C(CCCc1ccccc1)Nc1nc2ccccc2c(=O)s1 : 5
Cc1onc(-c2ccccc2Cl)c1C(=O)N(C)c1ccc(Cl)cc1 : 1
CCc1cc2cc(NS(=O)(=O)c3ccc(C#N)cc3)ccc2n(CC)c1=O : 7
O=C1[C@H](Cc2ccc(O)cc2)N2C(=O)CCN(C(=O)NCc3ccccc3)[C@H]2CN1Cc1cccc2ccccc12 : 10
CC[C@@H](C)Nc1nc(C)nc2c(-c3ccc(OC)nc3C)c(C)nn12 : 4
